assayName: Antiproliferative activity against human MES267 cells measured after 72 hrs by alamar blue assay
Assay type: functional, cell-based
Kindly supply the reported log10 IC50 values for the records listed here.
Values are log10 of IC50 in nM.

> print(dat)
                                 smilescode  testreadout  experimentalresult
1  COC(=O)c1ccc(-c2ccc3nc(-c4ccccc4)cn3c2)cc1   log10 IC50                2.92
2       c1ccc(-c2ccc3nc(-c4ccccc4)cn3c2)cc1   log10 IC50                1.67
3  COc1cccc(-c2cn3cc(-c4ccc(F)cc4)ccc3n2)c1   log10 IC50                2.54

Fill in log10 IC50 for each of the 4 compounds listed.
1. COc1ccc(-c2ccc3nc(-c4ccccc4)cn3c2)cc1
2. Fc1ccc(-c2ccc3nc(-c4ccccc4)cn3c2)cc1
3. COc1cccc(-c2cn3cc(-c4ccc(Cl)cc4)ccc3n2)c1
4. Clc1ccc(-c2ccc3nc(-c4ccccc4)cn3c2)cc1

Result ::
1. 2.82
2. 1.80
3. 1.85
4. 1.33

---

testSystem: Retinaldehyde dehydrogenase 3 (Homo sapiens, UniProt P47895)
Sequence (P47895 whole entry): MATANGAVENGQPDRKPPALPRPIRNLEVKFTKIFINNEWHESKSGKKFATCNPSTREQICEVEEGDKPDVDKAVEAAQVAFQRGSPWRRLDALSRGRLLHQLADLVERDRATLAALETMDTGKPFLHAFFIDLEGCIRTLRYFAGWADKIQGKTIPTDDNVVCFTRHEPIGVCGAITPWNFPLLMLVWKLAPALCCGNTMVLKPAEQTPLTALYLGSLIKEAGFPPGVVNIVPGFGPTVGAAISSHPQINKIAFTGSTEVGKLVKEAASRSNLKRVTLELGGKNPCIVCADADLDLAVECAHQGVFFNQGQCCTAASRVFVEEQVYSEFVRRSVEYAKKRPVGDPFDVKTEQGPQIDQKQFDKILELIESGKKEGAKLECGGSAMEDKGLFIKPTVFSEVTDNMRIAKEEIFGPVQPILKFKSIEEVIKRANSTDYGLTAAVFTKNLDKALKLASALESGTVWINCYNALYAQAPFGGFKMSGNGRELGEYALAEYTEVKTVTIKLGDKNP
assayName: Inhibition of recombinant human 6His-tagged ALDH1A3 expressed in Escherichia coli BL21(DE3) using acetaldehyde as substrate preincubated for 5 mins followed by substrate addition by spectrometric assay
testReadout: pIC50
Give bare numbers, as −log10 of the molar value.

Some molecules with known pIC50 results, for comparison:
> print(dat)
                                 smilescode                                testsystem  experimentalresult
1     Clc1ccc(-c2ccc3nc(-c4ccccc4)cn3c2)cc1  Retinaldehyde dehydrogenase 3 (Homo sapiens, UniProt P47895)                4.34
2  COC(=O)c1ccc(-c2ccc3nc(-c4ccccc4)cn3c2)cc1  Retinaldehyde dehydrogenase 3 (Homo sapiens, UniProt P47895)                4.56
3     COc1ccc(-c2ccc3nc(-c4ccccc4)cn3c2)cc1  Retinaldehyde dehydrogenase 3 (Homo sapiens, UniProt P47895)                4.75

Could you tell me pIC50 for each of these molecules? They are listed below.
1. Fc1ccc(-c2ccc3nc(-c4ccccc4)cn3c2)cc1
2. COc1ccc(-c2cn3cc(-c4cc(OC)cc(OC)c4)ccc3n2)cc1
3. Cc1ccc(-c2cn3cc(-c4ccc(F)cc4)ccc3n2)cc1
4. N#Cc1cccc(-c2ccc3nc(-c4ccccc4)cn3c2)c1
5. COc1cccc(-c2cn3cc(-c4ccc(F)cc4)ccc3n2)c1

Result ::
[4.64, 5.46, 4.03, 5.28, 4.67]

---

testSystem: Retinaldehyde dehydrogenase 3 (Homo sapiens, UniProt P47895)
assayName: Competitive inhibition of recombinant human 6His-tagged ALDH1A3 expressed in Escherichia coli BL21(DE3) using varying level of acetaldehyde as substrate preincubated for 5 mins followed by substrate addition by Michaelis-Menten plot analysis
testReadout: pKi
Answers are plain numbers, as −log10 of the molar value.

For record c1ccc(-c2ccc3nc(-c4ccccc4)cn3c2)cc1 the listed pKi is 6.27

---

assayName: Antiproliferative activity against human PN157 cells measured after 72 hrs by alamar blue assay
Assay type: functional, cell-based
Give measured IC50 for each item. Keep answers brief.
Answers are plain numbers, in nM.

See these solved cases before continuing.
> print(dat)
                                 smilescode  testreadout  experimentalresult
1  COc1cccc(-c2cn3cc(-c4ccc(Cl)cc4)ccc3n2)c1         IC50                29.6
2       c1ccc(-c2ccc3nc(-c4ccccc4)cn3c2)cc1         IC50                 151
3  COC(=O)c1ccc(-c2ccc3nc(-c4ccccc4)cn3c2)cc1         IC50                 822
4      Fc1ccc(-c2ccc3nc(-c4ccccc4)cn3c2)cc1         IC50                25.2
5  COc1cccc(-c2cn3cc(-c4ccc(F)cc4)ccc3n2)c1         IC50                1510

Required: IC50, one value per compound below.
1. COc1ccc(-c2ccc3nc(-c4ccccc4)cn3c2)cc1
2. Clc1ccc(-c2ccc3nc(-c4ccccc4)cn3c2)cc1

Result ::
2660
53.1

---

testSystem: Retinaldehyde dehydrogenase 3 (Homo sapiens, UniProt P47895)
assayName: Inhibition of recombinant human 6His-tagged ALDH1A3 expressed in Escherichia coli BL21(DE3) using acetaldehyde as substrate preincubated for 5 mins followed by substrate addition by spectrometric assay
Hi! Could you tag entries with IC50 below 10 µM as fulfilled, and those at or above as not fulfilled? Much appreciated.

Known results for compounds:
> print(dat)
                                 smilescode  assignedcategory
1  COc1ccc(-c2cn3cc(-c4ccc(OC)c(OC)c4)ccc3n2)cc1         fulfilled
2  COc1cccc(-c2cn3cc(-c4ccc(Cl)cc4)ccc3n2)c1         fulfilled
3      Cc1ccc(-c2cn3cc(-c4ccccc4)ccc3n2)cc1     not fulfilled
4  COc1ccc(-c2ccc3nc(-c4ccc(OC)cc4)cn3c2)cc1     not fulfilled
5    N#Cc1ccc(-c2ccc3nc(-c4ccccc4)cn3c2)cc1         fulfilled
6     CSc1ccc(-c2ccc3nc(-c4ccccc4)cn3c2)cc1     not fulfilled

Would you kindly look at the next entry?
Query :: Answer whether the compound c1ccc(-c2ccc3nc(-c4ccccc4)cn3c2)cc1 has IC50 strictly less than 10 µM
Result :: fulfilled
